Test: small molecules captured by biotinylated probe aFST – biochemical, small-molecule microarray, fluorescence 635/667, stem cell growth factor project, primary screen (AID 1086);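 also: score merges 667 nm fluorescence with signal-to-noise of each printed compound spot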
Settings: higher = more signal
Entries and their composite z-score values follow.
The response must contain the number and no unit.

| compound | composite z-score |
| --- | --- |
| COC(=O)[C@H]1[C@H](c2ccccc2)C(=O)[C@]2(O)c3ccccc3O[C@@]12c1ccccc1 | -0.12 |
| COc1cc2c(cc1O)C(C)N(C)CC2 (stereo unspecified) | -0.0662 |
| CCCc1cc2c(n1Cc1ccco1)C(C)C1CN(C(=O)c3ccccc3)C(C)(C(=O)OC)C21 (stereo unspecified) | 0.802 |
| COC(=O)[C@@]1(Cc2ccccc2)[C@H]2c3cc(C(=O)N(C)C)n(C)c3C[C@H]2CN1C(=O)c1ccccc1 | 0.566 |
| C[C@@H]1Cc2c(cnc3c2CN(C)CC3)CO1 | 0.0686 |

Exam item: Provide only the value of recorded composite z-score for CCOC(=O)[C@H]1CC=C2C(=O)Oc3ccc(Br)cc3[C@@H]21
Marked response: -0.598

Exam item: Specify reported composite z-score for the compound shown: COC(=O)[C@H]1C(=O)c2ccccc2O[C@@](C(=O)OC)(c2ccccc2)[C@@H]1c1ccccc1
Marked response: -0.204

Exam item: Note composite z-score for the compound shown: CCCc1cc2c(n1Cc1ccc(C)cc1)C(C)C1CN(C(=O)c3ccccc3)C(C)(C(=O)OC)C21 (stereo unspecified)
Marked response: 1.95

* * *

Molecular target: E3 ubiquitin-protein ligase XIAP (Homo sapiens)
Test: small molecules binding XIAP protein – biophysical, small-molecule microarray, fluorescence 635 nm, primary screen (AID 1181);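 also: score merges 667 nm emission and signal to noise over triplicate slides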
Conditions: higher = more signal
Classification scheme (composite z-score): Low: < -0.1; Medium: ≥ -0.1 and < 0.2; High: ≥ 0.2

Check out these entries, answers already filled in.
| compound | measuredTarget | assignedClass |
| --- | --- | --- |
| OCc1ccc(C2=CC(c3cccs3)N(Cc3cccc(OC(F)(F)F)c3)CC2)cc1 (stereo not drawn) | E3 ubiquitin-protein ligase XIAP (Homo sapiens) | Low |
| CCCc1cc2c(n1Cc1ccc(C)cc1)C(C)C1CN(C(=O)c3ccccc3)C(C)(C(=O)OC)C21 (stereo not drawn) | E3 ubiquitin-protein ligase XIAP (Homo sapiens) | Medium |
| C=C(CC1(C(C)NP(=O)(c2ccccc2)c2ccccc2)CC1)c1ccccc1 (stereo not drawn) | E3 ubiquitin-protein ligase XIAP (Homo sapiens) | High |
| C[C@@H]1OC=C2[C@@H](O)[C@H]3O[C@H]3C(=O)[C@]23[C@H]1[C@H]1C2=C([C@@H](O)[C@H]4O[C@H]4C2=O)[C@@H]3O[C@@H]1C | E3 ubiquitin-protein ligase XIAP (Homo sapiens) | Low |
| COC(=O)[C@@]1(Cc2ccccc2)[C@H]2c3cc(C(=O)N(C)C)n(C)c3C[C@H]2CN1C(=O)c1ccccc1 | E3 ubiquitin-protein ligase XIAP (Homo sapiens) | Medium |

Field: next compound
Exam item: For COc1cc2c(cc1O)C(C)N(C)CC2 (stereo not drawn) , which composite z-score bin applies?
Marked response: Low

* * *

System: Noggin (protein binding on small-molecule microarray)
Experiment: small molecules binding Noggin protein – biochemical, 635/667 nm fluorescence, primary screen (AID 1095);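 also: score merges 667 nm feature fluorescence with signal to noise over triplicate slides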
Settings: 635 nm fluorescence, higher = more signal
Quick rule for you: composite z-score at 0.3 or higher means T, lower means F.

// below: answered compounds
| compound | assignedClass |
| --- | --- |
| CCCc1cc2c(n1Cc1ccc(C)cc1)C(C)C1CN(C(=O)c3ccccc3)C(C)(C(=O)OC)C21 (stereo not drawn) | F |
| O=P(c1ccccc1)(c1ccccc1)N1CC2(CC2)CC(O)(c2ccccc2)C1 (stereo not drawn) | F |
| OCc1ccc(C2=CC(C3CC3)N(Cc3sc4ccccc4c3Cl)CC2)cc1 (stereo not drawn) | T |
| COC(=O)[C@H]1[C@H](c2ccccc2)C(=O)[C@]2(O)c3ccccc3O[C@@]12c1ccccc1 | T |

Exam item: Answer whether composite z-score of CN1CCC(c2ccc(CO)cc2)=CC1c1cccs1 (stereo not drawn) is greater than or equal to 0.3.
Marked response: F

Exam item: Kindly determine if composite z-score recorded for CCOC(=O)[C@H]1CC=C2C(=O)Oc3ccc(Br)cc3[C@@H]21 is above or exactly 0.3.
Marked response: F

Exam item: State whether the measured composite z-score reaches 0.3, counting equality as reaching it, for CCCC=C(CCC)[C@@H](NP(=O)(c1ccccc1)c1ccccc1)c1ccccc1
Marked response: T

Exam item: Check if composite z-score >= 0.3 (inclusive). Item: C[C@@H]1Cc2c(cnc3c2CN(C)CC3)CO1
Marked response: T

Exam item: Confirm if composite z-score reported for the compound CCCc1cc2c(n1CCO)C(C)C1CN(C(=O)c3ccccc3)C(C)(C(=O)OC)C21 (stereo not drawn) is 0.3 or above.
Marked response: F

Exam item: Hi team, for CN1CCC(c2ccc(CO)cc2)=CC1C1CC1 (stereo not drawn) , is the recorded composite z-score at or above 0.3?
Marked response: F

Exam item: Evaluate CCCc1cc2c(n1Cc1ccco1)C(C)C1CN(C(=O)c3ccccc3)C(C)(C(=O)OC)C21 (stereo not drawn) : composite z-score at minimum 0.3?
Marked response: F

Exam item: // inclusive: composite z-score at least 0.3? input: C[C@H]1O[C@H]2C3=C(C(=O)[C@@H]4O[C@@H]4[C@@H]3O)[C@@H]1[C@@H]1[C@@H](C)OC=C3[C@@H](O)[C@H]4O[C@H]4C(=O)[C@]312
Marked response: F

Exam item: Item COC(=O)[C@H]1[C@@H](O)[C@@]2(O)c3c(OC)cc(OC)cc3O[C@@]2(c2ccc(OC)cc2)[C@@H]1c1ccccc1 with composite z-score of 0.3 or above?
Marked response: T

Exam item: Is reported composite z-score greater than or equal to 0.3 here: CCCC[C@@H]1C[C@H]1[C@@H](NP(=O)(c1ccccc1)c1ccccc1)c1ccc(Cl)cc1
Marked response: F

* * *

Assay: plasmodial surface anion channel blockers, osmotic lysis – cell-based, P. falciparum Indochina, OD700, 1 h, primary screen (AID 1154)
Settings: P. falciparum Indochina infected RBC osmotic lysis; higher = more signal, called active from +8 up or from −8 down unless noted
parameter: z-score
Output spec: single numeric token, no unit.

Below, each entry is followed by its recorded z-score result.
| compound | parameter | reported |
| --- | --- | --- |
| COC(=O)[C@@]1(Cc2ccccc2)[C@H]2c3cc(C(=O)N(C)C)n(C)c3C[C@H]2CN1C(=O)c1ccccc1 | z-score | 1.24 |
| C[C@H]1O[C@H]2C3=C(C(=O)[C@@H]4O[C@@H]4[C@@H]3O)[C@@H]1[C@@H]1[C@@H](C)OC=C3[C@@H](O)[C@H]4O[C@H]4C(=O)[C@]312 | z-score | -0.49 |
| C=C(CC1(CNP(=O)(c2ccccc2)c2ccccc2)CC1)c1ccccc1 | z-score | 1.41 |

Shift focus to the following entry.
Exam item: Query z-score for OCc1ccc(C2=CC(c3cccs3)N(Cc3cccc(OC(F)(F)F)c3)CC2)cc1 (centres undefined)
Marked response: 3.92

* * *

Test: probe aDKK1 binding to arrayed compounds – biochemical, biotinylated probe, 635/667 nm fluorescence, primary screen (AID 1099);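 also: score merges 667nm spot fluorescence with signal to noise across triplicate slides; reference of the scale not given here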
Details: higher = more signal; small-molecule microarray, probe aDKK1, fluorescence unless noted
parameter: composite z-score
Please reply with the number alone, leaving off any unit.

| compound | reported |
| --- | --- |
| CN1CCc2nc(CO)c(CO)cc2C1 | 0.0703 |
| C=C(CC1(C(C)NP(=O)(c2ccccc2)c2ccccc2)CC1)c1ccccc1 (stereo not given) | 0.364 |
| COC(=O)C1(C)C=C2C(=C(C)C(=O)C2C)CN1 (stereo not given) | 0.859 |
| CCCC[C@@H]1C[C@H]1[C@@H](NP(=O)(c1ccccc1)c1ccccc1)c1ccc(Cl)cc1 | 0.294 |
| COC(=O)[C@@]1(Cc2ccccc2)[C@H]2c3cc(C(=O)N(C)C)[nH]c3C[C@H]2CN1C(=O)c1ccccc1 | 0.425 |

Exam item: Give reported composite z-score value for CCCc1cc2c(n1Cc1ccco1)C(C)C1CN(C(=O)c3ccccc3)C(C)(C(=O)OC)C21 (stereo not given)
Marked response: 1.6

Exam item: Give composite z-score for OCc1ccc(C2=CC(c3cccs3)N(Cc3cccc(OC(F)(F)F)c3)CC2)cc1 (stereo not given)
Marked response: -0.236

Exam item: Quickly give me recorded composite z-score for COC(=O)[C@H]1[C@H](c2ccccc2)C(=O)[C@]2(O)c3ccccc3O[C@@]12c1ccccc1
Marked response: -0.291

Exam item: Given the compound CCc1cc2c(nc1CC)CCN(CCC(C)=NOC)C2 , write its reported composite z-score.
Marked response: -0.112

* * *

Collected composite z-score values appear next to each entry.
Tested on: Neuregulin-1 EGF-like domain
Experiment: small molecules binding NRG1 EGF domain – biochemical, small-molecule microarray, 635 nm fluorescence, primary screen (AID 1081);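 also: binding of the protein to compounds printed on small-molecule microarray slides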
Conditions: higher = more signal

Below are worked cases with known answers.
| compound | composite z-score |
| --- | --- |
| CN1CCC(c2ccc(CO)cc2)=CC1c1cccs1 (centres undefined) | 1.04 |
| O=P(c1ccccc1)(c1ccccc1)N1CC2(CC2)CC(O)(c2ccccc2)C1 (centres undefined) | 1.33 |
| COC(=O)NCC=Cc1nc(CCC=CC(=O)O[C@H]2CC3CC(=O)O[C@@H](C=CCC(C)C)C[C@@H]4CC[C@H](C)[C@@H](C[C@@H](OC)C[C@H](C2)O3)O4)co1 | -0.905 |
| CCCc1cc2c(n1Cc1ccco1)C(C)C1CN(C(=O)c3ccccc3)C(C)(C(=O)OC)C21 (centres undefined) | 1.09 |
| OCc1ccc(C2=CC(C3CC3)N(Cc3sc4ccccc4c3Cl)CC2)cc1 (centres undefined) | 1.14 |
| COC(=O)[C@@]1(Cc2ccccc2)[C@H]2c3cc(C(=O)N(C)C)n(C)c3C[C@H]2CN1C(=O)c1ccccc1 | 1.14 |

Exam item: Write composite z-score of OCc1ccc(C2=CC(c3cccs3)N(Cc3cccc(OC(F)(F)F)c3)CC2)cc1 (centres undefined) ; system used: Neuregulin-1 EGF-like domain
Marked response: 0.536

Exam item: Name the value of composite z-score reported for CN1CCc2nc(CO)c(CO)cc2C1 when tested on Neuregulin-1 EGF-like domain.
Marked response: 0.611

Exam item: Answer with composite z-score of CCOC(=O)[C@H]1CC=C2C(=O)Oc3ccc(Br)cc3[C@@H]21 measured for Neuregulin-1 EGF-like domain.
Marked response: 0.727
